Biological target: Tyrosine-protein phosphatase non-receptor type 11 (Homo sapiens)
Experiment: NVS_ENZ_hPTPN11: NovaScreen (NVS) Enzymatic Assay for human Protein Tyrosine Phosphatase Non-receptor Type 11 (PTPN11) (AID 2283202)
Results filed as inconclusive are left out. The source made the active and inactive calls. The calls were made as follows: active = hit-call score of the fitted dose curve at least 0.9, where 1 is the maximum; inconclusive = response in the unintended direction; inactive = score below 0.9.
Labels: y for active, n for inactive

{"columns": ["compound", "experimental.system", "assigned.class"],
 "data": [
  ["N#Cc1c(Cl)c(Cl)c(Cl)c(C#N)c1Cl", "Tyrosine-protein phosphatase non-receptor type 11 (Homo sapiens)", "y"],
  ["O=C(O)C(F)(F)C(F)(F)C(F)(F)C(F)(F)C(F)(F)C(F)(F)C(F)(F)F", "Tyrosine-protein phosphatase non-receptor type 11 (Homo sapiens)", "n"],
  ["[2H]C1([2H])[n+]2ccccc2-c2cccc[n+]2C1([2H])[2H]", "Tyrosine-protein phosphatase non-receptor type 11 (Homo sapiens)", "n"],
  ["CC[C@H](C)[C@H]1O[C@]2(C=C[C@@H]1C)C[C@@H]1C[C@@H](C/C=C(\\C)[C@@H](O[C@H]3C[C@H](OC)[C@@H](O[C@H]4C[C@H](OC)[C@@H](O)[C@H](C)O4)[C@H](C)O3)[C@@H](C)/C=C/C=C3\\CO[C@@H]4[C@H](O)C(C)=C[C@@H](C(=O)O1)[C@]34O)O2 (tested in a mixture with another compound)", "Tyrosine-protein phosphatase non-receptor type 11 (Homo sapiens)", "n"]
]}
